List of molar heat capacity at constant pressure values.
experiment: molar heat capacity at constant pressure; xn = mol fraction of the nth substance listed; details: 323.15 K; 101 kPa; Liquid; Vacuum adiabatic calorimetry; x1 = 0.2
property_measured: molar heat capacity at constant pressure (J/K/mol)

compound	property_measured	observed_value
OCCOCCOCCO [triethylene glycol] + O	molar heat capacity at constant pressure	132.9
CC(O)CO (centres undefined) [1,2-propanediol] + O	molar heat capacity at constant pressure	104.3
OCCOCCO [diethylene glycol] + O	molar heat capacity at constant pressure	115.3
OCCCOCCCO [4-oxa-1,7-heptanediol] + O	molar heat capacity at constant pressure	132.7

====

test: molar heat capacity at constant pressure; xn = mol fraction of the nth substance listed; settings: 353.15 K; 101 kPa; Liquid; Vacuum adiabatic calorimetry; x1 = 0.8
molar heat capacity at constant pressure values, listed per item

compound	molar heat capacity at constant pressure (J/K/mol)
CC(O)CO (centres undefined) [1,2-propanediol] + O	195.5
OCCOCCOCCO [triethylene glycol] + O	311.3
OCCOCCO [diethylene glycol] + O	238.5
OCCCOCCCO [4-oxa-1,7-heptanediol] + O	309.4

====

assay: molar heat capacity at constant pressure; xn = mol fraction of the nth substance listed; conditions: 333.15 K; 101 kPa; Liquid; Vacuum adiabatic calorimetry; x1 = 0.6

compound	molar heat capacity at constant pressure [J/K/mol]
OCCOCCOCCO [triethylene glycol] + O	249.7
OCCCOCCCO [4-oxa-1,7-heptanediol] + O	245.8
OCCOCCO [diethylene glycol] + O	193.6
CC(O)CO (centres undefined) [1,2-propanediol] + O	161.8

====

assay: molar heat capacity at constant pressure; xn = mol fraction of the nth substance listed; settings: 313.15 K; 101 kPa; Liquid; Vacuum adiabatic calorimetry; x1 = 0.4

compound	molar heat capacity at constant pressure (J/K/mol)
OCCOCCOCCO [triethylene glycol] + O	186.3
OCCOCCO [diethylene glycol] + O	150.7
OCCCOCCCO [4-oxa-1,7-heptanediol] + O	184.9
CC(O)CO (centres undefined) [1,2-propanediol] + O	129.4

====

test: molar heat capacity at constant pressure; xn = mol fraction of the nth substance listed; conditions: 323.15 K; 101 kPa; Liquid; Vacuum adiabatic calorimetry; x1 = 0.5
Measured molar heat capacity at constant pressure of individual entries

compound	units_symbol	molar heat capacity at constant pressure
OCCOCCO [diethylene glycol] + O	J/K/mol	172.6
CC(O)CO (centres undefined) [1,2-propanediol] + O	J/K/mol	145.1
OCCCOCCCO [4-oxa-1,7-heptanediol] + O	J/K/mol	214.7
OCCOCCOCCO [triethylene glycol] + O	J/K/mol	216.5

====

assay: molar heat capacity at constant pressure; xn = mol fraction of the nth substance listed; details: 343.15 K; 101 kPa; Liquid; Vacuum adiabatic calorimetry; x1 = 0.6
Below, each entry is listed with its recorded molar heat capacity at constant pressure.

molecule	molar heat capacity at constant pressure [J/K/mol]
OCCCOCCCO [4-oxa-1,7-heptanediol] + O	250.8
OCCOCCO [diethylene glycol] + O	197.3
OCCOCCOCCO [triethylene glycol] + O	251.8
CC(O)CO (centres undefined) [1,2-propanediol] + O	165.8

====

assay: molar heat capacity at constant pressure; xn = mol fraction of the nth substance listed; conditions: 303.15 K; 101 kPa; Liquid; Vacuum adiabatic calorimetry; x1 = 0.2
Attribute: molar heat capacity at constant pressure

compound	molar heat capacity at constant pressure [J/K/mol]
OCCOCCO [diethylene glycol] + O	111.8
OCCOCCOCCO [triethylene glycol] + O	129.3
OCCCOCCCO [4-oxa-1,7-heptanediol] + O	129.1
CC(O)CO (centres undefined) [1,2-propanediol] + O	101.9
